Every entry's value here was drawn from PubChem BioAssay (NCI).

- Test system: HT29 colon
- methodDescription: NCI tumour cell line growth inhibition, 48 h
readoutName: TGI

compound=CCOC(=O)N1C/C(=C\c2ccc(N(C)C)cc2)C(=O)/C(=C/c2ccc(N(C)C)cc2)C1 result="> 100 µM"
compound=CCOC(=O)/C(=C\n1c(=O)sc2ccccc21)C(=O)c1ccccc1 result="> 100 µM"
compound=COc1cc2c(cc1OCCCN1CCOCC1)N=C[C@@H]1CCCN1C2=O result="47.7 µM"
compound="CC1=NN(c2ccccc2Cl)C2(C1)C(Cl)C(=O)N2c1nc2ccccc2s1 (centres undefined)" result="> 100 µM"

* * *

Below is a list of entries, each paired with its recorded TGI value.
- Tested on: U251 CNS
- methodDescription: NCI tumour cell line growth inhibition, 48 h
readoutName: TGI

compound=O=[N+]([O-])/C(C(Cl)=C(Cl)Cl)=C(\NCc1ccccc1)Sc1ccccc1 testedtarget="U251 CNS" result="> 100 µM"
compound=CC1=C(C(=O)Nc2cc(F)c(F)cc2F)C(c2ccc(N(C)C)cc2)C(C(=O)Nc2cc(F)c(F)cc2F)=C(C)N1 testedtarget="U251 CNS" result="> 100 µM"
compound="O=C1C=C(c2ccccc2)NC1(c1ccccc1)c1cc(-c2ccccc2)[nH]c1-c1ccccc1 (stereo not given)" testedtarget="U251 CNS" result="> 100 µM"
compound=O=C1c2c[n+](Cc3ccccc3)ccc2-c2nc3ccccc3c3ccnc1c23 testedtarget="U251 CNS" result="1.64 µM"
compound=O=C(/C=C/c1cccc(Cl)c1)c1ccccc1 testedtarget="U251 CNS" result="7.89 µM"
compound=O=C1OC(=O)c2c1cc1cc3c(cc1c2-c1ccc2c(c1)OCO2)OCO3 testedtarget="U251 CNS" result="> 100 µM"
compound=c1ccc2c(c1)n1c(N3CCCC3)[n+]3ccccc3c1c1c3cccc[n+]3c(N3CCCC3)n21 testedtarget="U251 CNS" result="> 100 µM"
compound="O=C1Sc2sc(=S)sc2SC1c1ccccc1 (stereo not given)" testedtarget="U251 CNS" result="> 100 µM"
compound="Cc1ccc(C)c(NC(=O)C(=O)C(C2C(C)CC(=O)C2CC(=O)O)[N+](=O)[O-])c1 (stereo not given)" testedtarget="U251 CNS" result="> 100 µM"
compound=c1ccc(CSCCC(SCc2ccccc2)SCc2ccccc2)cc1 testedtarget="U251 CNS" result="> 10 µM"

* * *

- Test system: NCI/ADR-RES ovarian
- methodDescription: NCI tumour cell line growth inhibition, 48 h
readoutName: TGI (µM)

compound=Cc1nc2ccccc2c(/C=C/c2ccc(C(F)(F)F)cc2)c1C(=O)/C=C/c1ccccc1 unittag=µM valueprefix== quantitativeresult=4.76
compound=O=C(/C=C/c1cccc(Cl)c1)c1ccccc1 unittag=µM valueprefix== quantitativeresult=49.8
compound="O=C(NC1C(=O)NC(CCc2ccccc2)NC1=O)OCc1ccccc1 (stereo not given)" unittag=µM valueprefix=> quantitativeresult=100
compound=COC(=O)c1c(C)c2c(c(C)c1O)OC(=O)c1c(C)cc(O)c(C=O)c1O2 unittag=µM valueprefix=> quantitativeresult=100
compound=O=C(Cn1c(C(=O)/C=C/c2ccc(Cl)c(Cl)c2)nc2ccccc21)c1ccccc1 unittag=µM valueprefix== quantitativeresult=73

* * *

- Tested on: MCF7 breast
- methodDescription: NCI tumour cell line growth inhibition, 48 h
readoutName: TGI (µM)

compoundstructure=O=C(/C=C/c1cccc(Cl)c1)c1ccccc1 valueprefix== quantitativeresult=10.3
compoundstructure=Nc1nc2cc(COc3ccc(C(=O)O)cc3)ccc2nc1-c1ccccc1 valueprefix=> quantitativeresult=10
compoundstructure=COP(=O)(OC)[C@@](O)(c1ccccc1)[C@@H](O)[C@@H](O)c1ccccc1 valueprefix== quantitativeresult=83.8
compoundstructure=C=CCNC(=S)NC=C(C(N)=O)C(N)=O valueprefix=> quantitativeresult=100
compoundstructure=CC1=C(C(=O)Nc2cc(F)c(F)cc2F)C(c2ccc(N(C)C)cc2)C(C(=O)Nc2cc(F)c(F)cc2F)=C(C)N1 valueprefix=> quantitativeresult=100

* * *

- System: SN12C renal
- methodDescription: NCI tumour cell line growth inhibition, 48 h
readoutName: TGI

compound=C=CC(=O)N1CCN(c2nc(OC[C@@H]3CCCN3C)nc3c(F)c(-c4nc(N)cc(C)c4C(F)(F)F)c(Cl)cc23)[C@@H](C)C1 readoutname=TGI result="3.62 µM"
compound=Cc1ccc(-c2csc3ncnc(Nc4cccc(O)c4)c23)cc1 readoutname=TGI result="> 100 µM"
compound=Cc1cc(NS(=O)(=O)c2ccc(NC(=O)c3ccc4nc5ccccc5c(Nc5ccc(S(N)(=O)=O)cc5)c4c3)cc2)no1 readoutname=TGI result="81.5 µM"
compound=CN(C)Cc1c[nH]c2nc[nH]c(=O)c12 readoutname=TGI result="> 100 µM"
compound="CCOC(=O)C1=C(C)N(Cc2ccccc2)C2(O)C=CC(=O)C3C(=O)N(c4ccccc4)C(=O)C132 (stereo not given)" readoutname=TGI result="10.6 µM"

* * *

Below is a list of entries, each paired with its recorded GI50 value.
- System: SK-OV-3 ovarian
- methodDescription: NCI tumour cell line growth inhibition, 48 h
readoutName: GI50

molecule=O=C(/C=C/c1cccc(Cl)c1)c1ccccc1 result="16.7 µM"
molecule="C[C@H]1CCC/C=C/[C@@H]2C[C@H](O)C[C@H]2[C@H](O)C(O)C(O)C(=O)O1 (stereo not given in full)" result="3.75 µM"
molecule=N#C/C(=C\c1ccccn1)c1nc2ccccc2o1 result="45.9 µM"
molecule=CCc1n(Cc2ccc3ccccc3c2)cc[n+]1Cc1ccc2ccccc2c1 result="1.46 µM"
molecule=Cc1nc2ccccc2c(/C=C/c2ccc(F)cc2)c1C(=O)/C=C/c1ccccc1 result="4.72 µM"
molecule="Nc1ccccc1SC(CC(=O)c1ccccc1)c1c(Cl)cccc1Cl (stereo not given)" result="12.1 µM"
molecule=CC(C)C[C@H](NC(=O)[C@@H](N)Cc1cccc2ccccc12)B(O)O result="2 µM"
molecule=O=C(Nc1cccc2[nH]c(C(F)(F)F)nc12)c1ccc(Br)cc1F result="2.64 µM"
molecule="Nc1ncnc2c1ncn2C1OC(F)(COS(N)(=O)=O)C(O)C1O (stereo not given)" result="> 100 µM"
molecule=COc1cc(/C=C/C(=O)c2cccc(-n3cc(-c4ccccc4)[nH]c3=O)c2)ccc1O result="4.02 µM"

* * *

- System: A498 renal
- methodDescription: NCI tumour cell line growth inhibition, 48 h
Below is a list of entries, each paired with its recorded GI50 value.
readoutName: GI50

compound=O=C1c2c[n+](Cc3ccccc3)ccc2-c2nc3ccccc3c3ccnc1c23 result="0.532 µM"
compound=O=C(NCCc1nccs1)c1cnc2c(S)cccc2c1 result="4.59 µM"
compound=O=C(N/N=C/c1coc2ccc(Cl)cc2c1=O)c1cc(O)c(O)c(O)c1 result="13.6 µM"
compound=Cc1nc2ccccc2c(/C=C/c2ccc(F)cc2)c1C(=O)/C=C/c1ccccc1 result="2.22 µM"
compound=N#C/C(=C\c1ccccn1)c1nc2ccccc2o1 result="30.4 µM"
compound=COc1cccc(/C=C2\COc3ccc(O)c(O)c3C2=O)c1OC result="4.01 µM"
compound="C[C@H]1CCC/C=C/[C@@H]2C[C@H](O)C[C@H]2[C@H](O)C(O)C(O)C(=O)O1 (some centres not stated)" result="2.29 µM"

* * *

- Tested on: SF-295 CNS
- methodDescription: NCI tumour cell line growth inhibition, 48 h; in the data active = GI50 below about 0.43 µM; inactive = the rest
Labels: t = active, f = inactive

molecule=COc1ccc(/C(=N/O)c2cc(F)c(F)c(OC)c2F)cc1O labelclass=t
molecule=O=C1c2c[n+](Cc3ccccc3)ccc2-c2nc3ccccc3c3ccnc1c23 labelclass=f
molecule=Cc1nc2ccccc2c(/C=C/c2ccc(C(F)(F)F)cc2)c1C(=O)/C=C/c1ccccc1 labelclass=f
molecule=Nc1ncnc2occ(-c3ccc(NC(=O)Nc4cccc(C(F)(F)F)c4)cc3)c12 labelclass=f
molecule=Cc1ccc(-c2csc3ncnc(Nc4cccc(O)c4)c23)cc1 labelclass=f
molecule=NC(=O)c1c(NC(=O)c2ccc(C(F)(F)F)cc2Cl)sc2c1CCC(=O)C2 labelclass=f
molecule=O=[N+]([O-])c1cc2c(ccc3ccccc32)o1 labelclass=t
molecule=COC(=O)c1cc2c3cc(Cl)ccc3[nH]c2c2ncccc12 labelclass=f
molecule=COc1cccc(C2=C(c3cn(C)c4c(C)cccc34)C(=O)NC2=O)c1 labelclass=f
molecule=C=CCn1c(C)nc2cc(Nc3nc(N4CCCC4)nc4nc[nH]c34)ccc21 labelclass=f
molecule=CCc1n(Cc2ccc3ccccc3c2)cc[n+]1Cc1ccc2ccccc2c1 labelclass=f
molecule=CC(C)C[C@H](NC(=O)[C@@H](N)Cc1cccc2ccccc12)B(O)O labelclass=t
molecule="CCCOC(=O)C1C(c2ccc(OC)cc2)NC(c2ccc(OC)cc2)C(C(=O)OCCC)S1(=O)=O (stereo unspecified)" labelclass=f
molecule=C(#Cc1ccccc1C#Cc1cnccn1)c1cnccn1 labelclass=f
molecule=Cc1nc2ccccc2c(/C=C/c2ccc(F)cc2)c1C(=O)/C=C/c1ccccc1 labelclass=f
molecule=O=C1/C(=C/c2ccc([N+](=O)[O-])s2)Oc2ccc(Br)cc21 labelclass=f
